meta.source: patent US11352358B2

Experiment: Liver microsome metabolism stability, rat liver microsome
Format: in vitro ADME, SD rat
Settings: 0.5 mg protein/mL, test sample 1 μM, β-NADPH
Procedure: Test samples: the homemade compounds 1, 2, 4 and 5 of the present invention (for their chemical names and preparation methods, see the preparation example for each compound). […] (8) 100 μL of supernatant was taken and added with 100 μL of water, and the mixture solution was thoroughly vortexed; and the solution was then analyzed by LC-MS/MS. Percentages of residual contents were calculated according to the following formula.
reportedMetric: Residual content (%) after 60 minutes of incubation

O=C(O)c1cc(F)c2nc(N3C[C@@H]4C[C@H]3C[C@H]4OCc3c(-c4ccccc4OC(F)(F)F)noc3C3CC3)sc2c1 | 73
O=C(O)c1cc(F)c2nc(N3C[C@H]4C[C@@H]3C[C@@H]4OCc3c(-c4c(Cl)cccc4Cl)noc3C3CC3)sc2c1 (racemic) | 69
COc1cc(C(=O)O)cc2sc(N3C[C@H]4C[C@@H]3C[C@@H]4OCc3c(-c4c(Cl)cccc4Cl)noc3C3CC3)nc12 (racemic) | 53
